Numbers sourced from the supplement of paper PMC11246515.

- Assay name: total protein half-life in vivo (active degradation + dilution); higher = more stable protein
- Setup conditions: wild type E. coli NCM3722; growth: N-lim chemostat; doubling time 6 h
total protein half-life in vivo overview
Measured attribute: total protein half-life in vivo

- Entry sequence: "MPSTPEEKKKVLTRVRRIRGQIDALERSLEGDAECRAILQQIAAVRGAANGLMAEVLESHIRETFDRNDCYSREVSQSVDDTIELVRAYLK [P0AAP3]"
  Measured attribute: "total protein half-life in vivo"
  Recorded value: "4.16 h"
- Entry sequence: "MRKSVIAIIIIVLVVLYMSVFVVKEGERGITLRFGKVLRDDDNKPLVYEPGLHFKIPFIETVKMLDARIQTMDNQADRFVTKEKKDLIVDSYIKWRISDFSRYYLATGGGDISQAEVLLKRKFSDRLRSEIGRLDVKDIVTDSRGRLTLEVRDALNSGSAGTEDEVTTPAADNAIAEAAERVTAETKGKVPVINPNSMAALGIEVVDVRIKQINLPTEVSEAIYNRMRAEREAVARRHRSQGQEEAEKLRATADYEVTRTLAEAERQGRIMRGEGDAEAAKLFADAFSKDPDFYAFIRSLRAYENSFSGNQDVMVMSPDSDFFRYMKTPTSATR [P0ABC3]"
  Measured attribute: "total protein half-life in vivo"
  Recorded value: "6.65 h"
- Entry sequence: "MKKILLMLSLLFFTTAGFSEVSDTLVTGGYDKQAMSDAIKHARKETDKFIEVMNKKDADTFAVKAPITDHGRTEHFWLTDVTYSNGMFIGVISNDPGIVTNVEYGQEWKIKKEDISDWMYTRGDKIYGGYTIDPLLVTYPKEEADELRAKLVR"
  Measured attribute: "total protein half-life in vivo"
  Recorded value: "4.65 h"
- Entry sequence: "MIGRLLRGGFMTAIYAYLYIPIIILIVNSFNSSRFGINWQGFTTKWYSLLMNNDSLLQAAQHSLTMAVFSATFATLIGSLTAVALYRYRFRGKPFVSGMLFVVMMSPDIVMAISLLVLFMLLGIQLGFWSLLFSHITFCLPFVVVTVYSRLKGFDVRMLEAAKDLGASEFTILRKIILPLAMPAVAAGWVLSFTLSMDDVVVSSFVTGPSYEILPLKIYSMVKVGVSPEVNALATILLVLSLVMVIASQLIARDKTKGNTGDVK [P0AFK6]"
  Measured attribute: "total protein half-life in vivo"
  Recorded value: "6.23 h"
- Entry sequence: "MLINIGRLLMLCVWGFLILNLVHPFPRPLNIFVNVALIFTVLMHGMQLALLKSTLPKDGPQMTTAEKVRIFLFGVFELLAWQKKFKVKK"
  Measured attribute: "total protein half-life in vivo"
  Recorded value: "4.21 h"
- Entry sequence: "MAIALVTGGSRGIGRATALLLAQEGYTVAVNYQQNLHAAQEVMNLITQAGGKAFVLQADISDENQVVAMFTAIDQHDEPLAALVNNAGILFTQCTVENLTAERINRVLSTNVTGYFLCCREAVKRMALKNGGSGGAIVNVSSVASRLGSPGEYVDYAASKGAIDTLTTGLSLEVAAQGIRVNCVRPGFIYTEMHASGGEPGRVDRVKSNIPMQRGGQAEEVAQAIVWLLSDKASYVTGSFIDLAGGK"
  Measured attribute: "total protein half-life in vivo"
  Recorded value: "4.66 h"
- Entry sequence: "MNPIVINRLQRKLGYTFNHQELLQQALTHRSASSKHNERLEFLGDSILSYVIANALYHRFPRVDEGDMSRMRATLVRGNTLAELAREFELGECLRLGPGELKSGGFRRESILADTVEALIGGVFLDSDIQTVEKLILNWYQTRLDEISPGDKQKDPKTRLQEYLQGRHLPLPTYLVVQVRGEAHDQEFTIHCQVSGLSEPVVGTGSSRRKAEQAAAEQALKKLELE [P0A7Y0]"
  Measured attribute: "total protein half-life in vivo"
  Recorded value: "4.85 h"
- Entry sequence: "MQLTSFTDYGLRALIYMASLPEGRMTSISEVTDVYGVSRNHMVKIINQLSRAGYVTAVRGKNGGIRLGKPASAIRIGDVVRELEPLSLVNCSSEFCHITPACRLKQALSKAVQSFLTELDNYTLADLVEENQPLYKLLLVE [P0AF63]"
  Measured attribute: "total protein half-life in vivo"
  Recorded value: "5.12 h"
- Entry sequence: "MKMIEVVAAIIERDGKILLAQRPAQSDQAGLWEFAGGKVEPDESQRQALVRELREELGIEATVGEYVASHQREVSGRIIHLHAWHVPDFHGTLQAHEHQALVWCSPEEALQYPLAPADIPLLEAFMALRAARPAD"
  Measured attribute: "total protein half-life in vivo"
  Recorded value: "3.82 h"

* * *

total protein half-life in vivo overview
- Assay name: total protein half-life in vivo (active degradation + dilution); higher = more stable protein
- Setup conditions: wild type E. coli NCM3722; growth: P-lim chemostat; doubling time 6 h

- Entry sequence: "MVKKAIVTAMAVISLFTLMGCNNRAEVDTLSPAQAAELKPMPQSWRGVLPCADCEGIETSLFLEKDGTWVMNERYLGAREEPSSFASYGTWARTADKLVLTDSKGEKSYYRAKGDALEMLDREGNPIESQFNYTLEAAQSSLPMTPMTLRGMYFYMADAATFTDCATGKRFMVANNAELERSYLAARGHSEKPVLLSVEGHFTLEGNPDTGAPTKVLAPDTAGKFYPNQDCSSLGQ"
  total protein half-life in vivo (h): 5.63
- Entry sequence: "MSHLKDPTTQYYTGEYPKQKQPTPGIQAKMTPVPDCGEKTYVGSGRLKDRKALVTGGDSGIGRAAAIAYAREGADVAISYLPVEEEDAQDVKKIIEECGRKAVLLPGDLSDEKFARSLVHEAHKALGGLDIMALVAGKQVAIPDIADLTSEQFQKTFAINVFALFWLTQEAIPLLPKGASIITTSSIQAYQPSPHLLDYAATKAAILNYSRGLAKQVAEKGIRVNIVAPGPIWTALQISGGQTQDKIPQFGQQTPMKRAGQPAELAPVYVYLASQESSYVTAEVHGVCGGEHLG [P0AG84]"
  total protein half-life in vivo (h): 5.5
- Entry sequence: "MRIGHGFDVHAFGGEGPIIIGGVRIPYEKGLLAHSDGDVALHALTDALLGAAALGDIGKLFPDTDPAFKGADSRELLREAWRRIQAKGYTLGNVDVTIIAQAPKMLPHIPQMRVFIAEDLGCHMDDVNVKATTTEKLGFTGRGEGIACEAVALLIKATK"
  total protein half-life in vivo (h): 5.81

* * *

total protein half-life in vivo overview
- Assay name: total protein half-life in vivo (active degradation + dilution); higher = more stable protein
- Setup conditions: E. coli NCM3722 delta-clpP; growth: N-lim chemostat; doubling time 6 h

- Entry sequence: "MSKIKGNVKWFNESKGFGFITPEDGSKDVFVHFSAIQTNGFKTLAEGQRVEFEITNGAKGPSAANVIAL [P0A972]"
  Measure unit: "h"
  total protein half-life in vivo: 2.27
- Entry sequence: "MLNKLSLLLKDAGISLTDHQKNQLIAYVNMLHKWNKAYNLTSVRDPNEMLVRHILDSIVVAPYLQGERFIDVGTGPGLPGIPLSIVRPEAHFTLLDSLGKRVRFLRQVQHELKLENIEPVQSRVEEFPSEPPFDGVISRAFASLNDMVSWCHHLPGEQGRFYALKGQMPEDEIALLPEEYQVESVVKLQVPALDGERHLVVIKANKI [P0A6U5]"
  Measure unit: "h"
  total protein half-life in vivo: 4.64
- Entry sequence: "MNPVPAQREYFLDSIRAWLMLLGIPFHISLIYSSHTWHVNSAESSLWLTLFNDFIHSFRMQVFFVISGYFSYMLFLRYPLKKWWKVRVERVGIPMLTAIPLLTLPQFIMLQYVKGKAESWPGLSLYDKYNTLAWELISHLWFLLVLVVMTTLCVWIFKRIRNNLENSDKTNKKFSMVKLSVIFLCLGIGYAVIRRTIFIVYPPILSNGMFNFIVMQTLFYLPFFILGALAFIFPHLKALFTTPSRGCTLAAALAFVAYLLNQRYGSGDAWMYETESVITMVLGLWMVNVVFSFGHRLLNFQSARVTYFVNASLFIYLVHHPLTLFFGAYITPHITSNWLGFLCGLIFVVGIAIILYEIHLRIPLLKFLFSGKPVVKRENDKAPAR"
  Measure unit: "h"
  total protein half-life in vivo: 5.18
- Entry sequence: "MKGGKRVQTARPNRINGEIRAQEVRLTGLEGEQLGIVSLREALEKAEEAGVDLVEISPNAEPPVCRIMDYGKFLYEKSKSSKEQKKKQKVIQVKEIKFRPGTDEGDYQVKLRSLIRFLEEGDKAKITLRFRGREMAHQQIGMEVLNRVKDDLQELAVVESFPTKIEGRQMIMVLAPKKKQ [P0A707]"
  Measure unit: "h"
  total protein half-life in vivo: 5.66
- Entry sequence: "MMELMVVHPHIFWLSLGGLLLAAEMLGGNGYLLWSGVAAVITGLVVWLVPLGWEWQGVMFAILTLLAAWLWWKWLSRRVREQKHSDSHLNQRGQQLIGRRFVLESPLVNGRGHMRVGDSSWPVSASEDLGAGTHVEVIAIEGITLHIRAVSS [P0AAS3]"
  Measure unit: "h"
  total protein half-life in vivo: 6.38
- Entry sequence: "MSEMIYGIHAVQALLERAPERFQEVFILKGREDKRLLPLIHALESQGVVIQLANRQYLDEKSDGAVHQGIIARVKPGRQYQENDLPDLIASLDQPFLLILDGVTDPHNLGACLRSADAAGVHAVIVPKDRSAQLNATAKKVACGAAESVPLIRVTNLARTMRMLQEENIWIVGTAGEADHTLYQSKMTGRLALVMGAEGEGMRRLTREHCDELISIPMAGSVSSLNVSVATGICLFEAVRQRS"
  Measure unit: "h"
  total protein half-life in vivo: 4.81
- Entry sequence: "MKAFNKLFSLVVASVLVFSLAGCGDKEESKKFSANLNGTEIAITYVYKGDKVLKQSSETKIQFASIGATTKEDAAKTLEPLSAKYKNIAGVEEKLTYTDTYAQENVTIDMEKVDFKALQGISGINVSAEDAKKGITMAQMELVMKAAGFKEVK"
  Measure unit: "h"
  total protein half-life in vivo: 5.39
- Entry sequence: "MELIFLGTSAGVPTRTRNVTAILLNLQHPTQSGLWLFDCGEGTQHQLLHTAFNPGKLDKIFISHLHGDHLFGLPGLLCSRSMSGIIQPLTIYGPQGIREFVETALRISGSWTDYPLEIVEIGAGEILDDGLRKVTAYPLEHPLECYGYRIEEHDKPGALNAQALKAAGVPPGPLFQELKAGKTITLEDGRQINGADYLAAPVPGKALAIFGDTGPCDAALDLAKGVDVMVHEATLDITMEAKANSRGHSSTRQAATLAREAGVGKLIITHVSSRYDDKGCQHLLRECRSIFPATELANDFTVFNV [P0A8V0]"
  Measure unit: "h"
  total protein half-life in vivo: 5.44
